Each recorded value in this set is attributed to PubChem BioAssay AID1159580.

test: chemical genetic growth profiling, strain panel (AID 1159580);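 also: tested at 20 µM; growth read once vehicle control cultures reached saturation at 30 °C; 1 = growth at the plate median or of vehicle wells; lower values mean less growth of the strain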; conditions: S. cerevisiae deletion strains, growth OD, locus YJL154C, strain vps35, stronger effect = lower value
About 2,000 (36%) of roughly 5,500 compounds were called active. About 18% were inconclusive and are not listed. This is one part of the list.
Measured normalized growth accompanies every entry in the list below.
When you answer, write just the number.

Worked set:
- CC(C)c1c(O)ccc2c1CCC1[C@@](C)(CO)CCC[C@]21C (some centres undefined): 1.01
- CC(C)c1c(O)c(-c2cc3c(c(C(C)C)c2O)CCC2C(C)(C)CCC[C@]32C)cc2c1CCC1C(C)(C)CCC[C@]21C (some centres undefined): 0.985
- O=C1[O][Bi][O]c2ccccc21: 1.04
- COc1cc(OC)c2ccc(=O)oc2c1: 0.984

Record COC(=O)[C@@]1(C)CCC[C@]2(C)c3ccc(O)c(C(C)C)c3CCC12 (some centres undefined) , field normalized growth: 0.981

The recorded normalized growth for CN[C@@H]1C(O)[C@@H](O[C@@H]2[C@@H](O)[C@H](O[C@H]3OC(CN)=CC[C@H]3N)[C@@H](N)C[C@H]2N)OC[C@]1(C)O (some centres undefined) is 1.01

Summary for this compound, CC(=O)Oc1ccc2c(c1C(C)C)CCC1C(C)(C)CCC[C@]21C (some centres undefined) : normalized growth is 1.01

Entry under test: CN[C@@H]1[C@@H](O)C(OC2[C@@H](N)C[C@@H](N)[C@H](O[C@H]3O[C@H](C(C)O)[C@@H](O)[C@H](O)[C@H]3N)[C@H]2O)OC[C@]1(C)O (some centres undefined) . Its normalized growth was 0.976

For reference, reported normalized growth for CC(=O)Oc1ccc2c(c1OC(C)=O)OCC1(O)Cc3c(cc(OC(C)=O)c(OC(C)=O)c3OC(C)=O)C21 (centres undefined) stands at 1.01

The reported normalized growth of the compound `COc1c2ccoc2cc2oc(=O)ccc12` was 0.977

Reported normalized growth for `COc1cc2occc2c2oc(=O)ccc12` was 1.02

----------
Measured normalized growth accompanies every entry in the list below.
assay: chemical genetic growth profiling, strain panel (AID 1159580); conditions: S. cerevisiae deletion strains, growth OD, locus YLR133W, strain CKI1, stronger effect = lower value
The whole screen tested about 5,500 compounds, of which about 2,000 (36%) were called active. About 18% were inconclusive and are not listed. Some of the results follow.
Number only, no unit.

Reference set (4 entries):
* COCCCNC(=S)N/N=C\c1cc(Cl)cc(Cl)c1O | 0.924
* CCOC(=O)N/N=C\c1cc(Cl)cc(Cl)c1O | 0.727
* O=[N+]([O-])c1cc(Cl)cc([N+](=O)[O-])c1Nc1ccccc1 | 0.954
* Oc1c(Cl)cc(Cl)cc1/C=N\NC(=S)Nc1cc(C(F)(F)F)cc(C(F)(F)F)c1 | 0.12

Attention now shifts to the item below.
Data point: `CCCCNC(=S)N/N=C\c1cc(Cl)cc(Cl)c1O` ; normalized growth = 0.49

----------
assay: chemical genetic growth profiling, strain panel (AID 1159580); settings: S. cerevisiae deletion strains, growth OD, locus YFL029C, strain CAK1, stronger effect = lower value
Out of some 5,500 compounds screened, about 2,000 (36%) were called active. Roughly 18% stayed inconclusive and do not appear here. The list shows a part of the results.
Reported values of normalized growth for individual entries
// print number alone

Reference set, count: 5
* Cc1nnc2n1N=C(c1ccc(CC(C)C)cc1)C(C)S2 (stereo unspecified) | 0.971
* COc1cc(Br)cc(C=Nc2ccc(Sc3ccccc3)nc2Sc2ccccc2)c1O | 0.966
* CCOC(=O)N/N=C\c1cc(Cl)cc(Cl)c1O | 0.931
* Cc1c(C)c(C)c(C(O)c2ccccc2)c(C)c1C (stereo unspecified) | 1
* OC(COc1ccc(F)cc1)(c1ccccc1)c1ccccc1 | 0.957

With those in mind, consider the next compound.
response.value for `CN(C)C=Nc1nnc(Sc2nc3c(Cl)cc(Cl)cc3s2)s1` (field: normalized growth) = 0.959

----------
test: chemical genetic growth profiling, strain panel (AID 1159580);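 also: tested at 20 µM; growth read once vehicle control cultures reached saturation at 30 °C; 1 = growth at the plate median or of vehicle wells; lower values mean less growth of the strain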; conditions: S. cerevisiae deletion strains, growth OD, locus YLR357W, strain rsc2
In all, about 5,500 compounds went through this assay and about 2,000 (36%) were called active. About 18% were inconclusive and are not listed. Cut-off read from the data, not from the text of the source: active = normalized growth mostly below about 0.91 (no sharp cut-off); inconclusive = no clear call, values can overlap the other calls; inactive = mostly above about 0.92. The list shows a part of the results. Where a SMILES comes first, the peptide text is derived from it.
A correct response names exactly one class from true for active, false for inactive

Past entries and their recorded results:
* CC1CCC2(OC1)OC1CC3C4CC[C@H]5C[C@@H](O)CC[C@]5(C)C4CC(=O)[C@]3(C)C1C2C (stereo not given in full) | false
* CNC(=O)Oc1cccc2c1OC(C)(C)O2 | false

What was the test verdict on COC(=O)[C@H](Cc1ccccc1)NC(=O)[C@@H](N)CC(=O)O (H-Asp-Phe-OMe) ?
false

Hi, do you know how C[C@@H]1CC[C@@]2(NC1)O[C@H]1C[C@H]3C4CC=C5C[C@@H](O)CC[C@]5(C)C4CC[C@]3(C)C1[C@@H]2C (stereo not given in full) came out in this test?
true

Assay outcome for C=C1CCC2(OC1)OC1CC3C4CC=C5CC(O)CC(O)C5(C)C4CCC3(C)C1C2C (stereo not given) : what was it?
false

Test call for this compound, please: `COc1cc(OC)c2ccc(=O)oc2c1`
false

Call for entry `COc1cc2occc2c2oc(=O)ccc12` :
true

// return assay outcome for C[C@@H]1CC[C@@]2(OC1)O[C@H]1CC3C4CC[C@H]5C[C@@H](O)CC[C@]5(C)C4CC[C@]3(C)[C@H]1[C@@H]2C (stereo not given in full)
false

So what was the verdict on `O=c1ccc2c(O)c3ccoc3cc2o1` in this test?
false

Kindly provide the recorded test outcome for the following compound: `O=C1[O][Bi][O]c2ccccc21`
false

----------
experiment: chemical genetic growth profiling, strain panel (AID 1159580);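 also: tested at 20 µM; growth read once vehicle control cultures reached saturation at 30 °C; 1 = growth at the plate median or of vehicle wells; lower values mean less growth of the strain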; settings: S. cerevisiae deletion strains, growth OD, locus YOL006C, strain TOP1, stronger effect = lower value
The whole screen tested about 5,500 compounds, of which about 2,000 (36%) were called active. About 18% were inconclusive and are not listed. The list shows a part of the results.
Classify on normalized growth using bin A (below 0.8), bin B (0.8 to below 1), bin C (1 or more)

• CCOC(=O)c1c(C)cc(O)cc1O = bin A
• COC(=O)[C@]1(C)CCC[C@]2(C)c3ccc(C(C)C)cc3C(=O)CC12 (some centres undefined) = bin B
• Cc1cc(Br)c(NC(=O)C(Cl)(Cl)Cl)c(Br)c1 = bin A
• CC[n+]1c(-c2ccccc2)c2cc(N)ccc2c2ccc(N)cc21 = bin A
• O=S(=O)(Oc1cc(Cl)cc(Cl)c1)c1cccc(S(=O)(=O)Oc2cc(Cl)cc(Cl)c2)c1 = bin C
• CC(C1OC(C)(C)C(O)C1O)[C@@H]1CC[C@]2(C)C3=CCC4C(C)(C)C(=O)CC[C@]4(C)C3CC[C@@]12C (some centres undefined) = bin B
• CCOC(=O)NC1=C(C2CC2)C(=O)C(NC(=O)OCC)=C(C2CC2)C1=O = bin C
• OC1(C(F)(F)F)CC(c2ccc3ccccc3c2)=NN1 (centres undefined) = bin A
• NC(=O)c1ncn([C@@H]2O[C@H](CO)[C@@H](O)[C@H]2O)n1 = bin C
• CCCCCCC(C)OC(=O)COc1ccc(Cl)cc1Cl (centres undefined) = bin B

Class (by measured normalized growth) for `O=C(O[C@@H]1Cc2c(O)cc(O)cc2O[C@@H]1c1cc(O)c(=O)c2c(O)c(O)cc([C@H]3Oc4cc(O)cc(O)c4C[C@H]3OC(=O)c3cc(O)c(O)c(O)c3)c2c1)c1cc(O)c(O)c(O)c1`
bin A

Using the reported normalized growth, which band applies to `COc1ccc(-c2cc(=O)c3c(O)cc(O[C@@H]4O[C@H](CO[C@H]5O[C@H](C)[C@@H](O)[C@H](O)[C@@H]5O)[C@@H](O)[C@H](O)[C@H]4O)cc3o2)cc1O` ?
bin C

----------
# normalized growth per record follows
assay: chemical genetic growth profiling, strain panel (AID 1159580);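 also: tested at 20 µM; growth read once vehicle control cultures reached saturation at 30 °C; 1 = growth at the plate median or of vehicle wells; lower values mean less growth of the strain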; conditions: S. cerevisiae deletion strains, growth OD, locus YOL147C, strain pex11, stronger effect = lower value
Screen size: about 5,500 compounds; about 2,000 (36%) were called active. About 18% were inconclusive and are not listed. The list shows a part of the results.

Example cases with answers are listed next.
- O=C1C=C2C(=CCOC2O)O1 (stereo unspecified): 0.984 (inactive)
- CC(C)[N+](C)(CCC(C(N)=O)(c1ccccc1)c1ccccc1)C(C)C: 1 (inactive)
- CCCCCc1c2c(cc(O)c1C(=O)O)OC(=O)c1c(cc(OC)cc1C(=O)CCCC)O2: 0.993 (inactive)

Proceed to the following item.
Measured normalized growth, `CNC(=O)Oc1cccc2c1OC(C)(C)O2` : 0.993 (inactive)
